# method: Phase I study CXR1002-001: plasma pharmacokinetics (LC-MS/MS)
# Assay type: in vivo, human
# assayContext: human, plasma, oral, 1200 mg, Patient 035, 1200 mg, person, plasma, 172 hr; read-out: Concentration
metric: concentration at 172 h
The answer should read as a number with its unit following.

Given O=C(O)C(F)(F)C(F)(F)C(F)(F)C(F)(F)C(F)(F)C(F)(F)C(F)(F)F [CXR1002] , state its recorded concentration at 172 h.
592 µM

* * *

# method: Phase I study CXR1002-001: plasma pharmacokinetics (LC-MS/MS)
# Format: in vivo, human
# assayContext: human, plasma, oral, 750 mg, Patient 028, 750 mg, person, plasma, 171 hr; read-out: Concentration
metric: concentration at 171 h (µM)
Express your answer in µM, writing the number without its unit.

Report concentration at 171 h for O=C(O)C(F)(F)C(F)(F)C(F)(F)C(F)(F)C(F)(F)C(F)(F)C(F)(F)F please.
301

* * *

# method: Phase I study CXR1002-001: plasma pharmacokinetics (LC-MS/MS)
# Type: in vivo, human
# assayContext: human, plasma, oral, 50 mg, Patient 004 Dose 50 mg; 360 hr (Day 16); read-out: Concentration
metric: concentration at 360 hr

Reported concentration at 360 hr, molecule O=C(O)C(F)(F)C(F)(F)C(F)(F)C(F)(F)C(F)(F)C(F)(F)C(F)(F)F [CXR1002] : ____
38.8 µM

* * *

# method: Phase I study CXR1002-001: plasma pharmacokinetics (LC-MS/MS)
# Assay type: in vivo, human
# assayContext: human, plasma, oral, 450 mg, Patient 015 Dose 450 mg; 4 hr; read-out: Concentration
metric: concentration at 4 h (µM)
Kindly answer with a numeric value in µM, unit omitted.

Returns the measured concentration at 4 h for the input compound. Input: O=C(O)C(F)(F)C(F)(F)C(F)(F)C(F)(F)C(F)(F)C(F)(F)C(F)(F)F [CXR1002]
217

* * *

# method: Phase I study CXR1002-001: plasma pharmacokinetics (LC-MS/MS)
# Format: in vivo, human
# assayContext: human, plasma, po, 1200 mg, Patient 038, 1200 mg weekly oral dose, Time 504 hr (Day 22); read-out: Concentration (plasma level)
metric: concentration at 504 h

For O=C(O)C(F)(F)C(F)(F)C(F)(F)C(F)(F)C(F)(F)C(F)(F)C(F)(F)F , what is its reported concentration at 504 h?
566 µM

* * *

# method: Phase I study CXR1002-001: plasma pharmacokinetics (LC-MS/MS)
# Format: in vivo, human
# assayContext: human, plasma, oral, 750 mg, Patient 028, 750 mg, person, plasma, 507 hr; read-out: Concentration
metric: concentration at 507 h (µM)
Unit µM implied. Number only.

// lookup concentration at 507 h for O=C(O)C(F)(F)C(F)(F)C(F)(F)C(F)(F)C(F)(F)C(F)(F)C(F)(F)F
490

* * *

# method: Phase I study CXR1002-001: plasma pharmacokinetics (LC-MS/MS)
# Format: in vivo, human
# assayContext: human, plasma, oral, 200 mg, Patient 009 Dose 200 mg; 192 hr (Day 9); read-out: Concentration
metric: concentration at 192 h

Which concentration at 192 h is listed for O=C(O)C(F)(F)C(F)(F)C(F)(F)C(F)(F)C(F)(F)C(F)(F)C(F)(F)F ?
136 µM

* * *

# method: Phase I study CXR1002-001: plasma pharmacokinetics (LC-MS/MS)
# Assay type: in vivo, human
# assayContext: human, plasma, po, 1000 mg, Patient 042, 1000 mg weekly oral dose, Time 840 hr (Day 36); read-out: Concentration (plasma level)
metric: concentration at 840 hr (µM)
Please give a number only; it is taken to be in µM.

concentration at 840 hr for O=C(O)C(F)(F)C(F)(F)C(F)(F)C(F)(F)C(F)(F)C(F)(F)C(F)(F)F ?
1250

* * *

# method: Phase I study CXR1002-001: plasma pharmacokinetics (LC-MS/MS)
# Format: in vivo, human
# assayContext: human, plasma, oral, 100 mg, Patient 006 Dose 100 mg; 336 hr (Day 15); read-out: Concentration
metric: concentration at 336 h (µM)
Your answer should be a plain number; it is taken to be in µM.

Look up concentration at 336 h: O=C(O)C(F)(F)C(F)(F)C(F)(F)C(F)(F)C(F)(F)C(F)(F)C(F)(F)F [CXR1002]
33.1

* * *

# method: Phase I study CXR1002-001: plasma pharmacokinetics (LC-MS/MS)
# Format: in vivo, human
# assayContext: human, plasma, po, 1000 mg, Patient 042, 1000 mg weekly oral dose, Time 339 hr; read-out: Concentration (plasma level)
metric: concentration at 339 hr (µM)
Just the number please, in µM, no unit attached.

I am curious: what concentration at 339 hr value has been reported for O=C(O)C(F)(F)C(F)(F)C(F)(F)C(F)(F)C(F)(F)C(F)(F)C(F)(F)F ?
675

* * *

# method: Phase I study CXR1002-001: plasma pharmacokinetics (LC-MS/MS)
# Type: in vivo, human
# assayContext: human, plasma, oral, 750 mg, Patient 027, 750 mg, person, plasma, 508 hr; read-out: Concentration
metric: concentration at 508 h

Can you share its concentration at 508 h? I mean this molecule: O=C(O)C(F)(F)C(F)(F)C(F)(F)C(F)(F)C(F)(F)C(F)(F)C(F)(F)F
671 µM

* * *

# method: Phase I study CXR1002-001: plasma pharmacokinetics (LC-MS/MS)
# Assay type: in vivo, human
# assayContext: human, plasma, po, 1200 mg, Patient 037, 1200 mg weekly oral dose, Time 172 hr; read-out: Concentration (plasma level)
metric: concentration at 172 h

Entry O=C(O)C(F)(F)C(F)(F)C(F)(F)C(F)(F)C(F)(F)C(F)(F)C(F)(F)F has what concentration at 172 h?
712 µM

* * *

# method: Phase I study CXR1002-001: plasma pharmacokinetics (LC-MS/MS)
# Type: in vivo, human
# assayContext: human, plasma, oral, 50 mg, Patient 003 Dose 50 mg; 4 hr; read-out: Concentration
metric: concentration at 4 h (µM)
Number only, in µM; omit the unit.

I'd like to know its concentration at 4 h. The compound in question is O=C(O)C(F)(F)C(F)(F)C(F)(F)C(F)(F)C(F)(F)C(F)(F)C(F)(F)F
18

* * *

# method: Phase I study CXR1002-001: plasma pharmacokinetics (LC-MS/MS)
# Assay type: in vivo, human
# assayContext: human, plasma, oral, 600 mg, Patient 023, 600 mg, person, plasma, 339 hr; read-out: Concentration
# Text: PK samples, PD (fasting) samples, blood glucose, and blood triglyceride samples, were taken over a 6-week period. Dose limiting toxicity (DLT) will be based on the toxicity assessments over the first 3-week period of the repeat dosing schedule. […]
metric: concentration at 339 h (µM)
// return numeric value only (unit: µM, not printed)

Return reported concentration at 339 h; argument: O=C(O)C(F)(F)C(F)(F)C(F)(F)C(F)(F)C(F)(F)C(F)(F)C(F)(F)F [CXR1002]
613

* * *

# method: Phase I study CXR1002-001: plasma pharmacokinetics (LC-MS/MS)
# Type: in vivo, human
# assayContext: human, plasma, po, 1000 mg, Patient 041, 1000 mg weekly oral dose, Time 676 hr; read-out: Concentration (plasma level)
metric: concentration at 676 hr (µM)
Just the number in µM, nothing appended.

Request the reported concentration at 676 hr associated with O=C(O)C(F)(F)C(F)(F)C(F)(F)C(F)(F)C(F)(F)C(F)(F)C(F)(F)F [CXR1002]
802

* * *

# Test system: TOV-21G
# method: ATP depletion cytotoxicity assay 48 hr
# Format: cell-based, human
# assayContext: Homo sapiens, TOV21G, 48 h, ATP depletion, 48 hrs, read-out: IC50 Mean
metric: pIC50
Convention used: pIC50 is expressed as -log10 of the molar concentration.

Param readout = pIC50; param system = TOV-21G; param query = O=C(O)C(F)(F)C(F)(F)C(F)(F)C(F)(F)C(F)(F)C(F)(F)C(F)(F)F [CXR1002] ; response: value
3.20

* * *

# method: Phase I study CXR1002-001: plasma pharmacokinetics (LC-MS/MS)
# Format: in vivo, human
# assayContext: human, plasma, po, 1200 mg, Patient 037, 1200 mg weekly oral dose, Time 672 hr (Day 29); read-out: Concentration (plasma level)
metric: concentration at 672 h (µM)
Write down the numeric answer in µM and omit the unit.

I am curious: what concentration at 672 h value has been reported for O=C(O)C(F)(F)C(F)(F)C(F)(F)C(F)(F)C(F)(F)C(F)(F)C(F)(F)F [CXR1002] ?
1320
